system-under-test: AMPA receptor
assay-overview: Binding of 3H-AMPA (displacement from rat cerebral membranes)
assay-conditions: buffer pH 7.1, on ice 60 minutes
measure: Ki (nM)

Sample answers from the record:
molecule | measure | result-number
O=C(O)CCc1nc2c3ccc4ccccc4c3[nH]c(=O)n2n1 [Example 19] | Ki | 700
O=C(O)CCc1nc2c3ccc(C(F)(F)F)cc3[nH]c(=O)n2n1 [Example 18] | Ki | 600
O=C(O)CCc1nc2c3ccc([N+](=O)[O-])cc3[nH]c(=O)n2n1 [Example 14] | Ki | 600
O=C(O)CCc1nc2c3cc([N+](=O)[O-])c([N+](=O)[O-])cc3[nH]c(=O)n2n1 [Example 15] | Ki | 1000

I: O=C(O)CCc1nc2c3cc4ccccc4cc3[nH]c(=O)n2n1 [Example 20]
II: O=C(O)CCCc1nc2c3ccc([N+](=O)[O-])cc3[nH]c(=O)n2n1 [Example 13]
Qu. Between the entries labeled I and II , whose measured Ki is lower? Kindly give the label for the entry you pick.
Ans. I
